# procedureSummary: Cytotoxicity against mouse Neuro2a cells assessed as cell survival after 72 hrs by CellTiter-96 aqueous one solution assay
# Assay type: cell-based, N2a
# assayConditions: read-out: LC50
outcomeMeasure: CC50 at 72 h (µM)
Record the value in µM, omitting the unit from your answer.

Sample Oc1cc(Cl)ccc1Oc1ccc(Cl)cc1Cl [TRICLOSAN] — what was its CC50 at 72 h?
5.4

Next:
Report CC50 at 72 h for `O=C(C(=O)N1CC=C(c2ccccc2)CC1)c1c[nH]c2ccccc12` please.
70

For the molecule shown here, `O=C(COc1ccccc1)NCCSc1c[nH]c2ccccc12` , give the reported CC50 at 72 h.
30

Using the record for `O=C(CC1CCCCC1)N1CCC(c2nc(-c3ccc(S(=O)(=O)N4CCCC4)cc3)no2)CC1` , report its CC50 at 72 h.
8
